# tested target: hα2A receptor (Homo sapiens, UniProt P08913)
# Construct: expressed in transfected cells; host or cells: CHO cells, stably transfected; membrane preparation
# Sequence (P08913 1-465): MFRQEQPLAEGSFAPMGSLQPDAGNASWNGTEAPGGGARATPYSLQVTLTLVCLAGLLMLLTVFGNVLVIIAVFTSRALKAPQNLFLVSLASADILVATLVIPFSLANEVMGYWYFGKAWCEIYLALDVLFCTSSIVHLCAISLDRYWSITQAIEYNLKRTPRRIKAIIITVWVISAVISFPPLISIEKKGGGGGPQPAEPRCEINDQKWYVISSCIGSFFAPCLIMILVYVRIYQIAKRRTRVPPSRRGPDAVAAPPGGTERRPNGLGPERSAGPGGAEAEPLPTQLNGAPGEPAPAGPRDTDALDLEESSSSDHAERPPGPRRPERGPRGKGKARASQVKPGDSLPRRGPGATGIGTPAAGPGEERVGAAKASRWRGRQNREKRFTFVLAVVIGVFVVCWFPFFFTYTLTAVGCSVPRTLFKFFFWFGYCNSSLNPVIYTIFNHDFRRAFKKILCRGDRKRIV
# assay name: Radioligand binding experiment for α2A-adrenoceptor ([3H]raulwolscine, CHO cell membranes)
# experimental conditions: [3H]raulwolscine binding, read-out: h-α2A pIC50 (converted)
property name: IC50 (nM)

A selection of reference data follows.
1. C/C(=C\c1ccccc1)CN1CCN(c2nccn(CCCc3ccccc3)c2=O)CC1 :: 200
2. CC(=O)CNCCCn1ccnc(NC2CCN(C/C(C)=C/c3ccccc3)CC2)c1=O :: 79.4

(1) C/C(=C\c1ccccc1)CN1CCC(Nc2nccn(CC(=O)C(C)(C)C)c2=O)CC1 [7-8]
(2) C/C(=C\c1ccccc1)CN1CCC(Nc2nccn(CCCN(C)C(=O)c3ccc(F)cc3)c2=O)CC1
Query string: Could you tell me which of 1 and 2 has the lower IC50 reading? Reply briefly: the label of your chosen item.
Result string: 1

----------
# tested target: 5HT-Transporter (Homo sapiens, UniProt P31645)
# Construct: Human platelet membranes (Oceanix Biosciences Corporation, Hanover, Md., USA) were thawed; tissue Oceanix Biosciences Corporation, Hanover, Md., USA; host or cells: human platelet membranes
# Sequence (P31645 whole entry): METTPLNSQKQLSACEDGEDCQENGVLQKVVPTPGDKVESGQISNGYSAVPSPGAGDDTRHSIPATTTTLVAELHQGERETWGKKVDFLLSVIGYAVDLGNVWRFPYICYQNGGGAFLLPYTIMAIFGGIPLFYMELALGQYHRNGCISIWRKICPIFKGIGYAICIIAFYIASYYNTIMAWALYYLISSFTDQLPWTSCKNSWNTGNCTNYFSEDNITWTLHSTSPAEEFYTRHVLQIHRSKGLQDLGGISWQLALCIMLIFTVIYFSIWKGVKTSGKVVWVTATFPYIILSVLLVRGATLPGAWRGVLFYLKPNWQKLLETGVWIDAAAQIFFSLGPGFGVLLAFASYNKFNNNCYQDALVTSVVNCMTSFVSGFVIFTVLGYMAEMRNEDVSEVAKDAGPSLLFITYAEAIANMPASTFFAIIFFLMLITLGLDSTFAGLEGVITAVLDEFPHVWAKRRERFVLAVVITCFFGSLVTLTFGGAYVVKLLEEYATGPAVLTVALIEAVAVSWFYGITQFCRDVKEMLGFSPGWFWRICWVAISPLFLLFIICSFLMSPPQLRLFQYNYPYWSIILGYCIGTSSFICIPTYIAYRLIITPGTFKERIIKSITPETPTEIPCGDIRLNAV
# assay name: Binding experiment for the 5HT-transporter ([3H]paroxetine, human platelet membranes)
# experimental conditions: [3H]paroxetine 0.5 nM, read-out: h-5HTT pIC50 (converted)
property name: IC50 (nM)

A selection of reference data follows.
1) C=CCn1ccnc(NC2CCN(C/C(C)=C/c3ccccc3)CC2)c1=O [7-11] :: 2000
2) C/C(=C\c1ccccc1)CN1CCC(Nc2nccn(CCn3cccc3)c2=O)CC1 [2-47] :: 3980

(P) C/C(=C\c1ccccc1)CN1CCC(Nc2nccn(CCN3C(=O)c4ccccc4C3=O)c2=O)CC1 [2-49]
(Q) C/C(=C\c1ccccc1)CN1CCC(Nc2nccn(CCCNCc3ccccc3)c2=O)CC1 [1-46]
Query string: Hi, I'm comparing P with Q and wondering which one has the bigger number for IC50. Any idea? Reply briefly: the label of your chosen item.
Result string: P
(P: 1000 nM, Q: 316 nM)

(1) C/C(=C\c1ccccc1)CN1CCC(Nc2nccn(CC(=O)NC(C)(C)Cc3ccccc3)c2=O)CC1 [1-62]
(2) COCCCn1ccnc(N2CCN(C/C(C)=C/c3ccccc3)CC2)c1=O [10-1]
Query string: Could you tell me which of 1 and 2 has the lower IC50 reading? Reply briefly: the label of your chosen item.
Result string: 1
(1: 1000 nM, 2: 7940 nM)

The reported numbers originate from patent US20090111801A1.
